The values you see were collected from patent EP3674287A1.

- Assay Text: Crystalline stability test under accelerated ICH storage conditions (XRPD)
- Type: physicochemical
- Test Settings: after 1 week
Assay Endpoint: Crystalline stability study 40 °C/ 75 ± 5 % RH After 1 week

Study these solved cases before continuing.
stdin: Item COc1cc(C=O)ccc1O.NCC(CC(=O)O)c1ccc(Cl)cc1.NCC(CC(=O)O)c1ccc(Cl)cc1 (stereo not drawn) [Form IX] has what recorded Crystalline stability study 40 °C/ 75 ± 5 % RH After 1 week?
stdout: Unstable

stdin: Item NCC(CC(=O)O)c1ccc(Cl)cc1.NCC(CC(=O)O)c1ccc(Cl)cc1.O=C(O)C=CC(=O)O (stereo not drawn) [Form VII] has what recorded Crystalline stability study 40 °C/ 75 ± 5 % RH After 1 week?
stdout: Unstable

stdin: Item COc1cc(C=CC(=O)O)ccc1O.NCC(CC(=O)O)c1ccc(Cl)cc1 [Form XII] has what recorded Crystalline stability study 40 °C/ 75 ± 5 % RH After 1 week?
stdout: Stable

stdin: Item NCC(CC(=O)O)c1ccc(Cl)cc1.O=C(O)c1ccccc1O (stereo not drawn) [Form VIII] has what recorded Crystalline stability study 40 °C/ 75 ± 5 % RH After 1 week?
stdout: Stable

Continuing:
stdin: Item NCC(CC(=O)O)c1ccc(Cl)cc1.O=C(O)C=Cc1ccccc1 (stereo not drawn) [Form III] has what recorded Crystalline stability study 40 °C/ 75 ± 5 % RH After 1 week?
stdout: Stable
